# System: Plasmodium falciparum Sir2 (PF13_0152, Sir2A)
# procedure_summary: Plasmodium falciparum Sir2A binding compounds – biochemical, small-molecule microarray, 635 nm fluorescence, primary screen (AID 1098);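 further: score merges spot fluorescence intensity with its signal-to-noise ratio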
# setup_conditions: fluorescence 635 nm, higher = more signal

[
  {
    "compound": "C=CC[C@@]1(C(=O)NCc2ccccc2)N=C(c2ccc(OCCCO)cc2)O[C@@H]1c1ccccc1CN=[N+]=[N-]",
    "composite z-score": 1.1
  },
  {
    "compound": "COc1ccccc1CN1C(=O)c2ccccc2[C@](Cc2ccccc2I)(C(=O)NCc2ccccc2)[C@@H]1c1ccc(CO)cc1",
    "composite z-score": 0.17
  },
  {
    "compound": "[N-]=[N+]=NCc1ccccc1[C@@H]1OC(c2ccc(OCCCO)cc2)=N[C@]1(Cc1ccccc1)C(=O)O",
    "composite z-score": 1.03
  },
  {
    "compound": "O=C1C2C=CC(C(O)CCc3ccccc3)N(Nc3ccccc3)C2C(=O)N1c1ccccc1 (centres undefined)",
    "composite z-score": 0.692
  }
]
